Target: Mouse ACVR2A (mouse, UniProt P27038 20-135, limits assumed); also: test concentration or dose not given here
Sequence (P27038 20-135 limits assumed): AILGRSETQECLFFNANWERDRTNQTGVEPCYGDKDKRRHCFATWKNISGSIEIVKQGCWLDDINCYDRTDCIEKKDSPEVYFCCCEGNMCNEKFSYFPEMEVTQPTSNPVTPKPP
Assay: ELISA
Experimental: The binding of ACVR2A-specific monoclonal antibodies to human ACVR2A, mouse ACVR2A, biotinylated goat anti-human kappa light chain (positive control) and human Fc (negative control) were determined by ELISA.
measured property: optical density (OD)
Your answer is read as OD, so omit the unit and give the number.

365_H10 (antibody, V domains shown, VH/VL only) VH: EVQLLESGGGLVQPGGSLRLSCAASGFTFDSYGMNWVRQAPGKGLEWVAGINYNSGYKSYADSVKGRFTISRDNSKNTLYLQMNSLRAEDTAVYYCARSANWHDTHLDYWGQGTLVTVSS VL: DIQMTQSPSSLSASVGDRVTITCRASQSIVTYVNWYQQKPGKAPKLVIYAATSLASGVPSRFSGSGSGTDFTLTISSLQPEDFATYYCQQSYNTPLTFGGGTKVEIK: 2.82
365_B11 (antibody, V domains shown, VH/VL only) VH: EVQLLESGGGLVQPGGSLRLSCAASGFTFSSYGMHWVRQAPGKGLEWVAGINYNGGYTSYADSVKGRFTISRDNSKNTLYLQMNSLRAEDTAVYYCARSANWHDTALDYWGQGTLVTVSS VL: DIQMTQSPSSLSASVGDRVTITCRASQSIISYLNWYQQKPGKAPKLVIYATTSRHSGVPSRFSGSGSGTDFTLTISSLQPEDFATYYCQQSYDSPLTFGGGTKVEIK: 2.75

Note: attention shifts to another entry.
### Prompt optical density for 367_B08 (antibody, V domains shown, VH/VL only) VH: EVQLLESGGGLVQPGGSLRLSCAASGFTFSDYGMNWVRQAPGKGLEWVSGINYNGGYKGYADSVKGRFTISRDNSKNTLYLQMNSLRAEDTAVYYCARSANWHDTALDYWGQGTLVTVSS VL: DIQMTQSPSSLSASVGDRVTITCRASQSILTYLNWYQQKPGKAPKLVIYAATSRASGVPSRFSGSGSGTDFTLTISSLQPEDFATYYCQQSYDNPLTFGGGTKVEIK ?
### Response 2.25

Every entry's value here was drawn from patent US20210380703A1.
